Parameter: EC50. Scope: all listed entries.
- subject of test: Neuropeptide FF receptor 1 (Homo sapiens)
- Sequence (Q9GZQ6 whole entry): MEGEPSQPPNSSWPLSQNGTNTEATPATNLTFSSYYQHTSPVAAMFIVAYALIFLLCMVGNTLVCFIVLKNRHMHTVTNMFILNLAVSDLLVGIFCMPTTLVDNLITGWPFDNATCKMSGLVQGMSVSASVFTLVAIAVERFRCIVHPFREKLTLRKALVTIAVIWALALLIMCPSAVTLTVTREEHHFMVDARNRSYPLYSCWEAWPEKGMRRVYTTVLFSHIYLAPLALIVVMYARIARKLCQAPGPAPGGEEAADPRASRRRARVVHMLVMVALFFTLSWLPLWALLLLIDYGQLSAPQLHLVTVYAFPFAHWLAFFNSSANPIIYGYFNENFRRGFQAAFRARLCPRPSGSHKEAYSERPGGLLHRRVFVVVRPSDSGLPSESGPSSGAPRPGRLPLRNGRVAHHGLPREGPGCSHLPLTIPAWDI
- test description: Agonist activity at NPFFR1 (unknown origin) expressed in HEK293-A cells assessed as reduction in forskolin-induced cAMP accumulation incubated for 30 mins by competition PKA binding assay
- Assay type: functional, cell-based
- study conditions: read-out: EC50
Non-standard residues stand in square brackets, D forms with d. Residues, ends and D or L forms follow the SMILES beside them. NMeF = CN[C@@H](Cc1ccccc1)C(=O)O
endpoint name: EC50 (nM)

| compound | subject of test | endpoint name | units of measure | reported result |
| --- | --- | --- | --- | --- |
| C[C@@H](NC(=O)[C@@H](N)Cc1ccc(O)cc1)C(=O)NCC(=O)N(C)[C@@H](Cc1ccccc1)C(=O)N[C@@H](CCC(N)=O)C(=O)N1CCC[C@H]1C(=O)N[C@@H](CCC(N)=O)C(=O)N[C@@H](CCCNC(=N)N)C(=O)N[C@@H](Cc1ccccc1)C(N)=O (H-Y[dA]G[NMeF]QPQRF-NH2) | Neuropeptide FF receptor 1 (Homo sapiens) | EC50 | nM | 289 |
| C[C@@H](NC(=O)[C@@H](N)Cc1ccc(O)cc1)C(=O)NCC(=O)N(C)[C@@H](Cc1ccccc1)C(=O)NCC(=O)N1CCC[C@H]1C(=O)N[C@@H](CCC(N)=O)C(=O)N[C@@H](CCCNC(=N)N)C(=O)N[C@@H](Cc1ccccc1)C(N)=O (H-Y[dA]G[NMeF]GPQRF-NH2) | Neuropeptide FF receptor 1 (Homo sapiens) | EC50 | nM | 973 |

* * *

- subject of test: Mu-type opioid receptor (Homo sapiens)
- Sequence (P35372 whole entry): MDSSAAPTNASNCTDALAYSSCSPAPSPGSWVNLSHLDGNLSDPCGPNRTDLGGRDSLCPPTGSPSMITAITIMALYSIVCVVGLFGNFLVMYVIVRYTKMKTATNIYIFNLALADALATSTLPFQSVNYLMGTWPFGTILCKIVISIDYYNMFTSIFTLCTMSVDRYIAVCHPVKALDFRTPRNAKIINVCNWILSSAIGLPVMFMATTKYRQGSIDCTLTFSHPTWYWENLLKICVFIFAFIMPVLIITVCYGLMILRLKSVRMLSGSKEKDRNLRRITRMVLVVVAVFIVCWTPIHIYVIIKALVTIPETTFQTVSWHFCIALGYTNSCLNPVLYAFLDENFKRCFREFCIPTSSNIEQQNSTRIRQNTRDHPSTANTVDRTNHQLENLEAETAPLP
- test description: Agonist activity at mu opioid receptor (unknown origin) expressed in HEK293-A cells assessed as reduction in forskolin-induced cAMP accumulation incubated for 30 mins by competition PKA binding assay
- Type: functional, cell-based
- study conditions: read-out: EC50
pEC50: −log10 of the molar value. Non-standard residues stand in square brackets, D forms with d. Residues, ends and D or L forms follow the SMILES beside them.

| compound | pEC50 |
| --- | --- |
| C[C@@H](NC(=O)[C@@H](N)Cc1ccc(O)cc1)C(=O)NCC(=O)N[C@@H](Cc1ccccc1)C(=O)N[C@@H](CCC(N)=O)C(=O)N1CCC[C@H]1C(=O)N[C@@H](CCC(N)=O)C(=O)N[C@@H](CCCNC(=N)N)C(=O)N[C@@H](Cc1ccccc1)C(N)=O (H-Y[dA]GFQPQRF-NH2) | 6.51 |
| C[C@@H](NC(=O)[C@@H](N)Cc1ccc(O)cc1)C(=O)NCC(=O)N[C@@H](Cc1ccccc1)C(=O)N[C@H](C)C(=O)N1CCC[C@H]1C(=O)N[C@@H](CCC(N)=O)C(=O)N[C@@H](CCCNC(=N)N)C(=O)N[C@@H](Cc1ccccc1)C(N)=O (H-Y[dA]GF[dA]PQRF-NH2) | 6.60 |

* * *

- subject of test: Mu-type opioid receptor (Homo sapiens)
- test description: Agonist activity at mu opioid receptor (unknown origin) expressed in HEK293-A cells assessed as reduction in forskolin-induced cAMP accumulation incubated for 30 mins by competition PKA binding assay relative to Tyr-D-Ala-Gly-Phe-Gln-Pro-Gln-Arg-Phe-NH2
- Format: functional, cell-based
- study conditions: filed as agonist
Non-standard residues stand in square brackets, D forms with d. Residues, ends and D or L forms follow the SMILES beside them. NMeF = CN[C@@H](Cc1ccccc1)C(=O)O
endpoint name: Emax (%)

| molecule | reported result |
| --- | --- |
| CSCC[C@@H](NC(=O)[C@H](Cc1ccccc1)NC(=O)CNC(=O)[C@@H](C)NC(=O)[C@@H](N)Cc1ccc(O)cc1)C(=O)N1CCC[C@H]1C(=O)N[C@@H](CCC(N)=O)C(=O)N[C@@H](CCCNC(=N)N)C(=O)N[C@@H](Cc1ccccc1)C(N)=O (H-Y[dA]GF[dM]PQRF-NH2) | 89.7 |
| C[C@@H](NC(=O)[C@@H](N)Cc1ccc(O)cc1)C(=O)NCC(=O)N[C@@H](Cc1ccccc1)C(=O)NCC(=O)N1CCC[C@H]1C(=O)N[C@@H](CCC(N)=O)C(=O)N[C@@H](CCCNC(=N)N)C(=O)N[C@@H](Cc1ccccc1)C(N)=O (H-Y[dA]GFGPQRF-NH2) | 80.4 |
| C[C@@H](NC(=O)[C@@H](N)Cc1ccc(O)cc1)C(=O)NCC(=O)N(C)[C@@H](Cc1ccccc1)C(=O)NCC(=O)N1CCC[C@H]1C(=O)N[C@@H](CCC(N)=O)C(=O)N[C@@H](CCCNC(=N)N)C(=O)N[C@@H](Cc1ccccc1)C(N)=O (H-Y[dA]G[NMeF]GPQRF-NH2) | 81.6 |
| N=C(N)NCCC[C@H](NC(=O)[C@H](CCC(N)=O)NC(=O)[C@@H]1CCCN1C(=O)[C@H](CCC(N)=O)NC(=O)[C@H](Cc1ccccc1)NC(=O)CNC(=O)[C@@H](CO)NC(=O)[C@@H](N)Cc1ccc(O)cc1)C(=O)N[C@@H](Cc1ccccc1)C(N)=O | 97.1 |
